Quick reference: Papp A→B of the listed items.
- test_summary: Apparent permeability across apical to basolateral side in MDCK cells
- Format: ADME, cell-based, Canis lupus familiaris
- run_conditions: dog
Record the value in ×10⁻⁶ cm/s, omitting the unit from your answer.

Using the record for Cc1cc(F)c(NC(=O)c2cccc(C(C)(C)C#N)c2)cc1-c1cnc2c(=O)n(C)ncc2c1 , report its Papp A→B.
14

Recorded Papp A→B of Cc1cc(F)c(NC(=O)NCCC(C)(C)C)cc1-c1ccc2c(=O)n(C)ncc2c1 , please.
8.7

Query (molecule): Cc1cc(F)c(C(=O)NCCCC(C)(C)C)cc1-c1ccc2c(=O)n(C)ncc2c1 ; field requested: Papp A→B
8.1

// returns reported Papp A→B for input Cc1cc(F)c(NC(=O)c2cccc(C(C)(C)C#N)c2)cc1-c1ccc2c(=O)n(C)ncc2c1
7.8

----------
pKi listing for selected compounds.
- target_system: Serine/threonine-protein kinase B-raf (Homo sapiens, UniProt P15056)
- Sequence (P15056 whole entry): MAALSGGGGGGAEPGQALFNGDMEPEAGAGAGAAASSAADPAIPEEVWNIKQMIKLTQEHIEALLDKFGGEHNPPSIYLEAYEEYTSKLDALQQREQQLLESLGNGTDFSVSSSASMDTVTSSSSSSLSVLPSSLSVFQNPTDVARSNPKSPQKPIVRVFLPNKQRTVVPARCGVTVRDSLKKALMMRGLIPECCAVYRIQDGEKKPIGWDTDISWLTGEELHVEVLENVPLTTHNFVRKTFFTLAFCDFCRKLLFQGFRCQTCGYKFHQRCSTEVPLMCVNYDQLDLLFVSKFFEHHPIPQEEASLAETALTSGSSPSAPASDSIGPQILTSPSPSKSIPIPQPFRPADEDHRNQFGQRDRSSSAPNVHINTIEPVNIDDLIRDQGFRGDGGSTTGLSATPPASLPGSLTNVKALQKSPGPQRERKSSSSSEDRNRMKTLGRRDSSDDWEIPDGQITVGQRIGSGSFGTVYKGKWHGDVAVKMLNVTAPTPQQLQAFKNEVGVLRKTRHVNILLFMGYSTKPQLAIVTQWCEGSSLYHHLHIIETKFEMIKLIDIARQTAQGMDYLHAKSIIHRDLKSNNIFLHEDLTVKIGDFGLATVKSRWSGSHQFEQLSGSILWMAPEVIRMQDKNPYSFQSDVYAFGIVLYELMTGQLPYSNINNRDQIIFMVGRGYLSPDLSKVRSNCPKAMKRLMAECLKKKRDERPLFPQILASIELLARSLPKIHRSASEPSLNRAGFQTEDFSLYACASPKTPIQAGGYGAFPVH
- test_summary: Inhibition of BRAF (unknown origin) (416 to 766) assessed as using inactive phosphorylated MAP2K1 substrate preincubated for 30 mins measured after 90 mins by DELFIA assay
pKi: −log10 of the molar value.

For Cc1cc(F)c(NC(=O)c2cccc(C(C)(C)C#N)c2)cc1-c1ccc2c(=O)n(C)ncc2c1 , what is its reported pKi?
> 10.10

# lookup: pKi of Cc1cc(F)c(NC(=O)NCCC(C)(C)C)cc1-c1ccc2c(=O)n(C)ncc2c1
> 10.10

# get_value(readout='pKi', item= Cc1cc(F)c(NC(=O)NCCC(C)(C)C)cc1-c1ccc2cc(N)ncc2c1 )
> 10.10

Record request: pKi value, item Cc1cc(F)c(NC(=O)NCCC(C)(C)C)cc1Nc1ccc2ncn(C)c(=O)c2c1F
> 10.10

----------
- target_system: RAF proto-oncogene serine/threonine-protein kinase (Homo sapiens, UniProt P04049, Y340D/Y341D)
- Sequence (P04049 whole entry Y340D/Y341D): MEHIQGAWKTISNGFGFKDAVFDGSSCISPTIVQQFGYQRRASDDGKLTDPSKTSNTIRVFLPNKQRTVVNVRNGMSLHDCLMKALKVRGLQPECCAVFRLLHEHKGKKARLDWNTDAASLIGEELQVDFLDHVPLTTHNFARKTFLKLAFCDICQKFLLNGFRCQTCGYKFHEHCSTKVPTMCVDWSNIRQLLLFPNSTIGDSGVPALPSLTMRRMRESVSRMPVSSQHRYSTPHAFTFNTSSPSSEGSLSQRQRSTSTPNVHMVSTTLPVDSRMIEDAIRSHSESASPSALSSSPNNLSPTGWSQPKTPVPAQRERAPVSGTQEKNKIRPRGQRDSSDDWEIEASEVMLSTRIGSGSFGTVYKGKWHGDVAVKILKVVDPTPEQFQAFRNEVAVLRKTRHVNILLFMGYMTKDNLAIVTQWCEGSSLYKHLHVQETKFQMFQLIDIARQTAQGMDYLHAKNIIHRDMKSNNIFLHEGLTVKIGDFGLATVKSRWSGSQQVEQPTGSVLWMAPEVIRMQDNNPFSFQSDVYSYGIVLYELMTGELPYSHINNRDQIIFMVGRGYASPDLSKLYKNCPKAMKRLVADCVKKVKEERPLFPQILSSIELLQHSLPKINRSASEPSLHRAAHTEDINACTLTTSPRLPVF
- test_summary: Inhibition of CRAF Y340D/Y341D mutant (unknown origin) assessed as using inactive phosphorylated MAP2K1 substrate preincubated for 30 mins measured after 90 mins by DELFIA assay
pKi: −log10 of the molar value.
// pKi lookup, one value per entry

Previously resolved entries follow.
| smi | pKi |
| --- | --- |
| Cc1cc(F)c(NC(=O)NCCC(C)(C)C)cc1-c1ccc2cc(N)ncc2c1 | > 10.30 |
| Cc1cc(F)c(NC(=O)NCCC(C)(C)C)cc1-c1ccc2c(=O)n(C)ncc2c1 | > 10.30 |

Proceed to the following item.
Please look up its pKi: Cc1cc(F)c(NC(=O)c2cccc(C(C)(C)C#N)c2)cc1-c1ccc2c(=O)n(C)ncc2c1
> 10.30
